- Tested on: SK-MEL-5
- assay_procedure: NCI tumour cell line growth inhibition, 48 h
Calls of active or inactive are those of the source. Rule as the data show it: active = GI50 up to about 1.1 µM and inactive = higher.
experimental_readout: GI50

compound	subject_of_test	GI50
Nc1ncnc2c1ncn2CC(OCP(=O)(O)O)Oc1ccccc1 (stereo not given)	SK-MEL-5	> 100 µM (inactive)
Cc1cc(Cl)ccc1NC(=O)CCCC(=O)C1C/C(=N/O)CC/C1=N\O (stereo not given)	SK-MEL-5	> 100 µM (inactive)
COc1ccc2c(c1)CN1C(=N2)CSC1c1c(Cl)cccc1[N+](=O)[O-] (stereo not given)	SK-MEL-5	12.8 µM (inactive)

stdin: Find the measured GI50: item O=S(=O)(O)C(Cc1nc2ccccc2[nH]1)S(=O)(=O)OCCC1S(=O)(=O)OCCOS1(=O)=O (stereo not given) , target or system SK-MEL-5.
stdout: > 100 µM (inactive)

stdin: State its GI50 on SK-MEL-5: CN(C(=O)c1ccc(OCCCC(=O)O)c(Cl)c1Cl)C1CCCC1
stdout: > 100 µM (inactive)

stdin: Record lookup: for SK-MEL-5, what GI50 belongs to Cc1cc2c(=O)cc(-c3ccc(F)cc3)oc2c(C(=O)O)c1C ?
stdout: > 100 µM (inactive)

stdin: Fill in the recorded GI50 for this compound, with SK-MEL-5 as test system: O=C(CSc1ncccn1)N/N=C/c1ccccc1OCc1ccccc1
stdout: 14.8 µM (inactive)

stdin: # query: GI50 | item CC(=O)Nc1ccc2c(c1)/C(=C\c1ccc([N+](C)(C)C)cc1)c1ccccc1-2 | system: SK-MEL-5
stdout: 24.2 µM (inactive)

* * *

- Test system: SK-MEL-2
- assay_procedure: NCI tumour cell line growth inhibition, 48 h
The source made the active and inactive calls. No stated cut-off is given here; in the data, active = GI50 up to about 1.1 µM and inactive = higher.
experimental_readout: GI50

Some compounds with recorded GI50:
>>> df
                                   compound         measurement
0  O=C1C(N2CCCC2)=CC(=O)c2c(O)c(N3CCCC3)c(Cl)c(O)c21  > 10 µM (inactive)
1  CN1/C(=C/C=C/C=C/C=C2C(=O)c3ccccc3C2=O)C(C)(C)c2ccccc21  20.3 µM (inactive)
2         COc1cccc(/C=C2\CCCc3ccccc3C2=O)c1  13.8 µM (inactive)

stdin: I have this compound here, CC1=NC(=Cc2cc(Br)cc(Br)c2)C(=O)N1n1c(-c2ccccc2)nc2ccccc2c1=O , and I need its recorded GI50.
stdout: > 100 µM (inactive)

stdin: May I ask what GI50 has been recorded for COC(=O)C1=C(C)NC2(O)C=CC(=O)C3C(=O)N(c4ccccc4)C(=O)C132 (centres undefined) ?
stdout: > 100 µM (inactive)

stdin: Need GI50 of CC1=NN=C(C)C1/N=N/c1ccc2[nH]c(C)nc2c1 , thanks.
stdout: 8.07 µM (inactive)

stdin: Param item = CCOC(=O)c1c(N2CCOCC2)[nH]c(=O)c(C(c2c(O)c(C(=O)OCC)c(N3CCOCC3)[nH]c2=O)C(C)C)c1O ; retrieve measured GI50.
stdout: > 100 µM (inactive)

stdin: Look up GI50: COc1cc2c(c(OC)c1OC)C(=O)[C@@H]1[C@H]2N1C(=O)NCCCl
stdout: > 100 µM (inactive)

stdin: Query (compound): C=CCC1([C@H](C)[C@@H](OC(C)=O)c2cc(OC)c(OC)c(OC)c2)C[C@@H](OC)CCC1=O (some centres undefined) ; field requested: GI50
stdout: 15.3 µM (inactive)
